Data provenance is patent US20220389379A1.

- Tested on: primary breast tumor epithelial cells isolated from breast cancer tissues (HMFL-XN1, HMFL-XN3, HMFL-XN4, HMFL-XN6, HMFL-XN8)
- MEASUREMENT DESCRIPTION: Optimization of primary breast epithelial cell culture medium: cell count after culture with medium additives
- Format: cell-based, human
- Design: key: +: compared with the basis medium, the medium added with the additive(s) can promote the proliferation of primary breast tumor epithelial cells isolated from at least three cases of breast cancer tissues; −: the medium added with the additive(s) has the effect of inhibiting proliferation of primary breast tumor epithelial cells isolated from at least two cases of breast cancer tissues; ○: the medium added with this additive(s) has no significant effect on the proliferation of primary breast tumor epithelial cells isolated from at least three cases of breast cancer tissues
- EXPERIMENTAL PARAMETERS: additive at the concentration given in Table 1 added to basis medium; cell count after 10 days of culture, compared with basis medium; five breast cancer samples
QUANTITY MEASURED: Degree of cell

Look over these answered cases.
MOLECULE	Degree of cell
Interleukin 10: medium additive (R&D) (protein, UniProt P22301 19-178, looked up) Interleukin-10: SPGQGTQSENSCTHFPGNLPNMLRDLRDAFSRVKTFFQMKDQLDNLLLKESLLEDFKGYLGCQALSEMIQFYLEEVMPQAENQDPDIKAHVNSLGENLKTLRLRLRRCHRFLPCENKSKAVEQVKNAFNKLQEKGIYKAMSEFDIFINYIEAYMTMKIRN	○
Noggin: medium additive (R&D) (protein, UniProt Q13253 28-232, looked up) Noggin: QHYLHIRPAPSDNLPLVDLIEHPDPIFDPKEKDLNETLLRSLLGGHYDPGFMATSPPEDRPGGGGGAAGGAEDLAELDQLLRQRPSGAMPSEIKGLEFSEGLAQGKKQRLSKKLRRKLQMWLWSQTFCPVLYAWNDLGSRFWPRYVKVGSCFSKRSCSVPEGMVCKPSKSVHLTVLRWRCQRRGGQRCGWIPIQYPIISECKCSC	○
R-spondin3: R-spondin family protein, medium additive (protein, UniProt Q9BXY4 22-272, looked up) R-spondin-3: QNASRGRRQRRMHPNVSQGCQGGCATCSDYNGCLSCKPRLFFALERIGMKQIGVCLSSCPSGYYGTRYPDINKCTKCKADCDTCFNKNFCTKCKSGFYLHLGKCLDNCPEGLEANNHTMECVSIVHCEVSEWNPWSPCTKKGKTCGFKRGTETRVREIIQHPSAKGNLCPPTNETRKCTVQRKKCQKGERGKKGRERKRKKPNKGESKEAIPDSKSLESSKEIPEQRENKQQQKKRKVQDKQKSVSVSTVH	○
Fibroblast growth factor 7: fibroblast growth factor 7 (FGF7), medium additive (protein, UniProt P21781 32-194, looked up) Fibroblast growth factor 7: CNDMTPEQMATNVNCSSPERHTRSYDYMEGGDIRVRRLFCRTQWYLRIDKRGKVKGTQEMKNNYNIMEIRTVAVGIVAIKGVESEFYLAMNKEGKLYAKKECNEDCNFKELILENHYNTYASAKWTHNGGEMFVALNQKGIPVRGKKTKKEQKTAHFLPMAIT	+

Fill in: Degree of cell of Fibroblast growth factor 10: fibroblast growth factor 10 (FGF10), medium additive (protein, UniProt O15520 38-208, looked up) Fibroblast growth factor 10: QALGQDMVSPEATNSSSSSFSSPSSAGRHVRSYNHLQGDVRWRKLFSFTKYFLKIEKNGKVSGTKKENCPYSILEITSVEIGVVAVKAINSNYYLAMNKKGKLYGSKEFNNDCKLKERIEENGYNTYASFNWQHNGRQMYVALNGKGAPRRGQKTRRKNTSAHFLPMVVHS is ___
+
